targetEntity: Recombinant human FAP (R&D systems, #3715-SE) (human, UniProt Q12884 26-760)
Sequence (Q12884 26-760 limits assumed): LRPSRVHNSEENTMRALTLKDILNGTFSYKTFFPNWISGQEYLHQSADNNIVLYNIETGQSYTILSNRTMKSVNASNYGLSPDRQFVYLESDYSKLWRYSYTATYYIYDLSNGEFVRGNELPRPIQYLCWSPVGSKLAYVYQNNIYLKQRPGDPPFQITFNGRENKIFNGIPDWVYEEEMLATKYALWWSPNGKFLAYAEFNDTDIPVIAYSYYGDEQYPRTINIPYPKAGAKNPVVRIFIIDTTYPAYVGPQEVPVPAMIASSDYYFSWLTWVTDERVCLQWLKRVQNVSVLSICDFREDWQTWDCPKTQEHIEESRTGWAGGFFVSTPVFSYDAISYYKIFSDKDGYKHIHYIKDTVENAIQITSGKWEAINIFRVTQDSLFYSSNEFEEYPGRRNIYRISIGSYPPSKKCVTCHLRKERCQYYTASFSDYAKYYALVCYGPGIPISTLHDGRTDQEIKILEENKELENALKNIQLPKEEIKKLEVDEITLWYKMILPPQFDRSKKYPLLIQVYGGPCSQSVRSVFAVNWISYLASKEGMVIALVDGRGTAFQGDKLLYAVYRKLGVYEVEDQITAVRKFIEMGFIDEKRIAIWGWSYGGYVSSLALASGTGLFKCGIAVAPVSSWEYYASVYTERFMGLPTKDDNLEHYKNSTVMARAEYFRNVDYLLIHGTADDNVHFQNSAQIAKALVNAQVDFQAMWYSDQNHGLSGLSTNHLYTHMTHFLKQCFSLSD
measurementDescription: cell-based or functional assay
Numbered stars: 1 amine (or outer) side, 2 acyl side, 3 side chain; on linkers, the order of the positions; unused ones are H or OH. Bridge positions count the residues as written; N and C are the ends. Square brackets hold non-standard residues; d marks the D form. Primed or numbered codes have the meaning given here. * marks the point of attachment. tMeBn(DOTA-PP) = 1,3,5-trimethylbenzylidene, two thioethers to Cys, third CH2 bound to one N of piperazine whose other N bears DOTA, O=C(O)CN1CCN(CC(=O)O)CCN(CC(=O)N2CCN(Cc3cc(C[*:1])cc(C[*:2])c3)CC2)CCN(CC(=O)O)CC1; Ttds″ = 1,13-diamino-4,7,10-trioxatridecan-succinamic acid spacer, O=C(CCC(=O)[*:2])NCCCOCCOCCOCCCN[*:1]; DOTA = O=C(O)CN1CCN(CC(=O)O)CCN(CC(=O)*)CCN(CC(=O)O)CC1; mXylylene = c1cc(C[*:1])cc(C[*:2])c1; Pentanesulfonyl = CCCCCS(=O)(=O)*; Nphe = O=C(O)CNCc1ccccc1; Hexanoyl = CCCCCC(=O)*
measuredMetric: pIC50 Category (Activity)

binder	pIC50 Category (Activity)
Hexanoyl-CPPAEFC-NH2 (linker 1-7 via mXylylene; SMILES CCCCCC(=O)N[C@H]1CSCc2cccc(c2)CSC[C@@H](C(N)=O)NC(=O)[C@H](Cc2ccccc2)NC(=O)[C@H](CCC(=O)O)NC(=O)[C@H](C)NC(=O)[C@@H]2CCCN2C(=O)[C@@H]2CCCN2C1=O) [Hex-[Cys(3MeBn)-Pro-Pro-Ala-Glu-Phe-Cys]-NH2]	≤ 6 pIC50

Query: May I ask what pIC50 Category (Activity) has been recorded for Pentanesulfonyl-CPPTQFCD-NH2 (linker 1-7 via tMeBn(DOTA-PP); SMILES CCCCCS(=O)(=O)N[C@H]1CSCc2cc(cc(CN3CCN(C(=O)CN4CCN(CC(=O)O)CCN(CC(=O)O)CCN(CC(=O)O)CC4)CC3)c2)CSC[C@@H](C(=O)N[C@@H](CC(=O)O)C(N)=O)NC(=O)[C@H](Cc2ccccc2)NC(=O)[C@H](CCC(N)=O)NC(=O)[C@H]([C@@H](C)O)NC(=O)[C@@H]2CCCN2C(=O)[C@@H]2CCCN2C1=O, also called 3BP-3692) [Pentyl-SO2-[Cys(tMeBn(DOTA-PP))-Pro-Pro-Thr-Gln-Phe-Cys]-Asp-NH2] ?
Result: > 8 pIC50

Query: Try this binder next: Hexanoyl-CPPTQFCD-NH2 (linker 1-7 via mXylylene; SMILES CCCCCC(=O)N[C@H]1CSCc2cccc(c2)CSC[C@@H](C(=O)N[C@@H](CC(=O)O)C(N)=O)NC(=O)[C@H](Cc2ccccc2)NC(=O)[C@H](CCC(N)=O)NC(=O)[C@H]([C@@H](C)O)NC(=O)[C@@H]2CCCN2C(=O)[C@@H]2CCCN2C1=O) [Hex-[Cys(3MeBn)-Pro-Pro-Thr-Gln-Phe-Cys]-Asp-NH2]
Result: > 8 pIC50

Query: Try this binder next: Pentanesulfonyl-CPPTQFCD-NH2 (linker 1-7 via mXylylene; SMILES CCCCCS(=O)(=O)N[C@H]1CSCc2cccc(c2)CSC[C@@H](C(=O)N[C@@H](CC(=O)O)C(N)=O)NC(=O)[C@H](Cc2ccccc2)NC(=O)[C@H](CCC(N)=O)NC(=O)[C@H]([C@@H](C)O)NC(=O)[C@@H]2CCCN2C(=O)[C@@H]2CCCN2C1=O, also called 3BP-3514) [Pentyl-SO2-[Cys(3MeBn)-Pro-Pro-Thr-Gln-Phe-Cys]-Asp-NH2]
Result: > 8 pIC50

Query: Try this binder next: Hexanoyl-CPPTAFC-NH2 (linker 1-7 via mXylylene; SMILES CCCCCC(=O)N[C@H]1CSCc2cccc(c2)CSC[C@@H](C(N)=O)NC(=O)[C@H](Cc2ccccc2)NC(=O)[C@H](C)NC(=O)[C@H]([C@@H](C)O)NC(=O)[C@@H]2CCCN2C(=O)[C@@H]2CCCN2C1=O) [Hex-[Cys(3MeBn)-Pro-Pro-Thr-Ala-Phe-Cys]-NH2]
Result: ≤ 6 pIC50

Query: Try this binder next: Hexanoyl-CPPTE[Nphe]C-NH2 (linker 1-7 via mXylylene; SMILES CCCCCC(=O)N[C@H]1CSCc2cccc(c2)CSC[C@@H](C(N)=O)NC(=O)CN(Cc2ccccc2)C(=O)[C@H](CCC(=O)O)NC(=O)[C@H]([C@@H](C)O)NC(=O)[C@@H]2CCCN2C(=O)[C@@H]2CCCN2C1=O) [Hex-[Cys(3MeBn)-Pro-Pro-Thr-Glu-Nphe-Cys]-NH2]
Result: ≤ 6 pIC50

Query: Try this binder next: Ac-MCPPTEFCDHARD-NH2 (linker 2-8 via mXylylene; SMILES CSCC[C@H](NC(C)=O)C(=O)N[C@H]1CSCc2cccc(c2)CSC[C@@H](C(=O)N[C@@H](CC(=O)O)C(=O)N[C@@H](Cc2c[nH]cn2)C(=O)N[C@@H](C)C(=O)N[C@@H](CCCNC(=N)N)C(=O)N[C@@H](CC(=O)O)C(N)=O)NC(=O)[C@H](Cc2ccccc2)NC(=O)[C@H](CCC(=O)O)NC(=O)[C@H]([C@@H](C)O)NC(=O)[C@@H]2CCCN2C(=O)[C@@H]2CCCN2C1=O, also called 3BP-3196) [Ac-Met-[Cys(3MeBn)-Pro-Pro-Thr-Glu-Phe-Cys]-Asp-His-Ala-Arg-Asp-NH2]
Result: > 8 pIC50

Query: Try this binder next: Hexanoyl-CPPTQFCD[Ttds″]K(DOTA)-NH2 (linker 1-7 via mXylylene; SMILES CCCCCC(=O)N[C@H]1CSCc2cccc(c2)CSC[C@@H](C(=O)N[C@@H](CC(=O)O)C(=O)NCCCOCCOCCOCCCNC(=O)CCC(=O)N[C@@H](CCCCNC(=O)CN2CCN(CC(=O)O)CCN(CC(=O)O)CCN(CC(=O)O)CC2)C(N)=O)NC(=O)[C@H](Cc2ccccc2)NC(=O)[C@H](CCC(N)=O)NC(=O)[C@H]([C@@H](C)O)NC(=O)[C@@H]2CCCN2C(=O)[C@@H]2CCCN2C1=O, also called 3BP-3395) [Hex-[Cys(3MeBn)-Pro-Pro-Thr-Gln-Phe-Cys]-Asp-Ttds-Lys(DOTA)-NH2]
Result: > 8 pIC50

Query: Try this binder next: Hexanoyl-CPPTQFCD-NH2 (linker 1-7 via tMeBn(DOTA-PP); SMILES CCCCCC(=O)N[C@H]1CSCc2cc(cc(CN3CCN(C(=O)CN4CCN(CC(=O)O)CCN(CC(=O)O)CCN(CC(=O)O)CC4)CC3)c2)CSC[C@@H](C(=O)N[C@@H](CC(=O)O)C(N)=O)NC(=O)[C@H](Cc2ccccc2)NC(=O)[C@H](CCC(N)=O)NC(=O)[C@H]([C@@H](C)O)NC(=O)[C@@H]2CCCN2C(=O)[C@@H]2CCCN2C1=O) [Hex-[Cys(tMeBn(DOTA-PP))-Pro-Pro-Thr-Gln-Phe-Cys]-Asp-NH2]
Result: > 8 pIC50

Cited source for all entries: patent US20230212549A1
